- SUBJECT OF TEST: ShHTL7 (Striga hermonthica)
- Sequence (A0A0M3PNA2 1-271): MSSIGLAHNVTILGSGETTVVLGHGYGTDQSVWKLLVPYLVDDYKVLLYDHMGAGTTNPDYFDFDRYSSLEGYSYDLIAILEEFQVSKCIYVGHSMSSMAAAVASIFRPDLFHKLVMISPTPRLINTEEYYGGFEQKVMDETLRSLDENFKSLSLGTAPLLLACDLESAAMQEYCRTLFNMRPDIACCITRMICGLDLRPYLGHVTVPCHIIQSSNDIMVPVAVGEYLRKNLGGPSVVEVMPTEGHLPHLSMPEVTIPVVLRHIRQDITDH
- PROTOCOL SUMMARY: YLG assay (inhibition of YLG hydrolysis) with recombinant ShHTL7
- Type: biochemical
- CONDITION CONTEXT: 1 h incubation, read-out: IC50 in YLG assay
Assign pIC50 to each entry below.
Numbers only, as −log10 of the molar value.

- MOLECULE: "CC1=CC(OC(=O)/C=C/c2ccc(Br)cc2)OC1=O (stereo not drawn) [t-CASL8]"
  pIC50: 6.15

Provide each entry's pIC50 from the list below.
1. CC1=CC(OC(=O)/C=C/c2ccc(C)cc2)OC1=O (stereo not drawn) [t-CASL2]
2. CC1=CC(OC(=O)/C=C\c2ccc(O)cc2)OC1=O (stereo not drawn) [c-CASL3]
3. CC1=CC(OC(=O)/C=C2/CCc3ccccc32)OC1=O (stereo not drawn) [c-indCASL]
4. CC1=CC(OC(=O)/C=C/c2ccccc2)OC1=O (stereo not drawn) [t-CASL1]
5. CC1=CC(OC(=O)/C=C\c2ccc(Cl)cc2)OC1=O (stereo not drawn) [c-CASL9]
6. CC1=CC(OC(=O)/C=C/c2ccc(F)cc2)OC1=O (stereo not drawn) [t-CASL7]

Data returned:
1. 5.85
2. 5.46
3. 5.70
4. 5.69
5. 6.47
6. 5.81

For each of the molecules below, state pIC50.
1. CC1=CC(OC(=O)/C=C/c2ccc([N+](=O)[O-])cc2)OC1=O (stereo not drawn) [t-CASL6]
2. COc1ccc(/C=C\C(=O)OC2C=C(C)C(=O)O2)cc1 (stereo not drawn) [c-CASL4]
3. CC1=CC(OC(=O)/C=C\c2ccccc2)OC1=O (stereo not drawn) [c-CASL1]
4. CC1=CC(OC(=O)/C=C\c2ccc(C(F)(F)F)cc2)OC1=O (stereo not drawn) [c-CASL10]
5. CC1=CC(OC(=O)/C=C\c2ccc([N+](=O)[O-])cc2)OC1=O (stereo not drawn) [c-CASL6]
6. CC1=CC(OC(=O)/C=C2\CCc3ccccc32)OC1=O (stereo not drawn) [t-indCASL]
7. CC1=C[C@H](O/C=C2/C(=O)O[C@@H]3c4ccccc4C[C@H]23)OC1=O (relative stereo) [GR24, reference compound]

Data returned:
1. 6.15
2. 6.18
3. 6.23
4. 6.66
5. 6.60
6. 5.51
7. 6.77

// batch mode: one pIC50 value per listed entry
1. CC1=CC(OC(=O)/C=C/c2ccc(Cl)cc2)OC1=O (stereo not drawn) [t-CASL9]
2. COc1ccc(/C=C/C(=O)OC2C=C(C)C(=O)O2)cc1 (stereo not drawn) [t-CASL4]
3. CC1=CC(OC(=O)/C=C\c2ccc(Br)cc2)OC1=O (stereo not drawn) [c-CASL8]
4. CC1=CC(OC(=O)/C=C/c2ccc(C(F)(F)F)cc2)OC1=O (stereo not drawn) [t-CASL10]
5. CC1=CC(OC(=O)CCc2ccccc2)OC1=O (stereo not drawn) [PPASL]
6. CC1=CC(OC(=O)/C=C\c2ccc(C)cc2)OC1=O (stereo not drawn) [c-CASL2]
7. CC1=CC(OC(=O)/C=C2\CCCc3ccccc32)OC1=O (stereo not drawn) [t-tetCASL]
8. CC1=CC(OC(=O)/C=C\c2ccc(F)cc2)OC1=O (stereo not drawn) [c-CASL7]

Data returned:
1: 6.08; 2: 5.66; 3: 6.44; 4: 6.47; 5: 5.84; 6: 6.17; 7: 5.41; 8: 5.94

Data request: For ShHTL7 (Striga hermonthica), give pIC50 of the listed molecule: CC1=CC(OC(=O)/C=C2/CCCc3ccccc32)OC1=O (stereo not drawn) [c-tetCASL]
Data returned: 5.34
